Test: Acute 7-day toxicity after single application per os
Conditions: mouse, in vivo, po, white NMRI-mice, not fed
Description: The acute 7-day toxicity is determined after a single application per os in white NMRI-mice which had not been fed. The calculation of the LD50 is carried out by probitananalysis by means of electronic data processing (see L. Cavalli-Sforza, Gustav Fischer-Verlag, Stuttgart (1964), Grundbegriffe der Biometrie, p. 153).
recorded.metric: LD50 at 168 h

# compound, reported.result
data = [
    ("COc1cc(C(=O)NCC(O)CN(C)c2ccc(C)cc2)cc(OC)c1OC (stereo not drawn)", "> 3160 mg/kg"),
    ("COc1cc(C(=O)NCC(O)CN(C)c2ccc(F)cc2)cc(OC)c1OC (stereo not drawn)", "5010 mg/kg"),
    ("CCOc1cc(C(=O)NCC(O)CN(C)c2ccc(F)cc2)cc(OCC)c1OCC (stereo not drawn)", "> 1370 mg/kg"),
]
